Field: neutralization IC50. Provide a value for each of the binders that follow.
- Target Under Test: HIV-1 Env of 0260.v5.c36 (HIV-1)
- Protocol Summary: cell-based or functional assay

Q. What value of neutralization IC50 has been recorded for this entry: CAP256-VRC26.05 (antibody, V domains shown) VH: EVQLVESGGGVVQPGRSLRLSCAASHFSLSSYGMHWVRQAPGKGLEWVTGISFAGTKTYYGDSVRGRFTVSRDISKNTLFLQMNSLRPDDTAMYYCARDQRYYECEEWASDYYDFGREQPCLDPRGVVGIFDLWGQGTMVTVSS VL: QSALTQPPSVSAAPGQKVTISCSGNIGNNYVSWYQQVPGTAPKLLIYENNKRPSGIPDRFSGSKSGTSATLVITGLQTGDEADFYCGTWGGSLRTGGVLGTGTRVTVLG
A. > 50 µg/mL

Q. Can you share its neutralization IC50? I mean this binder: CAP256-VRC26.07 (antibody, V domains shown) VH: EVQLVESGGGVVQPGRSLRLSCVGSQFSFNRYGMHWVRQAPGKGLEWVAGISFDGTDRYHADNVWGRFTISRDNSKNTLYLQMSSLRAEDTALYYCAKDLREDECEEWWSDYYDFGKKLPCRKSRGVAGVFDKWGQGTMVTVSS VL: QAVLTQPPSVSAAPGQNVTISCSGSGSNIGNNFVSWYQQRPGTAPKLLIYESNKRPSGIPDRFSGSKSGTSATLAITGLQTGDEAYYYCATWAARLNSARVFGTGTMVTVLG
A. > 50 µg/mL

Q. Which measured neutralization IC50 value corresponds to CAP256-VRC26.03 (antibody, V domains shown) VH: EVQLVESGGGVVQPGKSLRLSCAASRFSFNRYGMHWVRQAPGKGLEWVAAISYDGTDKYHADKVWGRFTISRDNSKNTLYLQMNSLRAEDTALYYCAKDLREDECEEWWSDYYDFGKQLPCRKSRGVAGIFDGWGQGTMVTVSS VL: QSVLTQPPSVSAAPGQKVTISCSGSSSNIGNNFVSWYQQRPGTAPKILIYENNKRPSETPDRFSGSKSGTSATLAITGLQTADEAEYYCATWSASLSSARVFGTGTRITVLG ?
A. > 50 µg/mL
